Target: T1, human MUC16 on cells (human, UniProt Q8WXI7 1-14507)
T1 construct: whole, on cells; also called huMUC16; MUC16 on OVCAR3 and SNU216 cells
Assay: flow cytometry (MFI GeoMean) on OVCAR3 cells, nM is the unit of the x axis Log10[Ab] (nM)
# EC50 per record follows
ASSAY_METRIC: EC50 (nM)

[[record]]
binder = "B218 (antibody, V domains shown, Anti-MUC16 mAb; also called MUC16-B218) VH: EVQLLESGAEVKKPGSSVKVSCKASGGTFSSYAISWVRQAPGQGLEWMGGIIPIFGTANYAQKFQGRVTITADESTSTAYMELSSLRSEDTAVYYCARGGPHYDFWSGYTPGQHGGAFDIWGQGTMVTVSS VL: NIQMTQSPSTLSASLGDRVSITCRASQSISGWLAWYQQKPGKAPKLLIYRTSYLESGVPSRFSAGGSGTEFTLTISSLQPDDFATYYCQHYDTFSRAFGQGTKVDIK"
assay_metric = "EC50"
readout_unit = "nM"
observed_result = 0.907

[[record]]
binder = "D100 (antibody, V domains shown, Anti-MUC16 mAb; also called MUC16-D100) VH: QVQLVQSGAEVKKPGSSVKVSCKASGGTFSRYHAISWVRQAPGQGLEWMGGIIPILGTANYAQKFQGRVTITADESTSTAYMELSSLRSEDTAVYYCASGTTAARYYYYYYYMDVWGKGTTVTVSS VL: NIQMTQSPSSLSASVGDRVTITCQASQDISNYLNWFHQKPGKAPNLLIYDASNLETGVPSRFSGSGSGTDFTFTISSLQPEDIGTYYCQQYDNLPLTFGGGTKVDIK"
assay_metric = "EC50"
readout_unit = "nM"
observed_result = 0.286

[[record]]
binder = "3A5 (antibody, human IgG1, kappa, V domains shown, Benchmark anti-MUC16 antibody; printed both as h3A5 and 3A5; also called h3A5; benchmarker 3A5) VH: EVQLVESGGGLVQPGGSLRLSCAASGYSITNDYAWNWVRQAPGKGLEWVGYISYSGYTTYNPSIKSRFTISRDTSKNTLYLQMNSLRAEDTAVYYCARWTSGLDYWGQGTLVTVSS VL: DIQMTQSPSSLSASVGDRVTITCKASDLIHNWLAWYQQKPGKAPKLLIYGATSLETGVPSRFSGSGSGTDFTLTISSLQPEDFATYYCQQYWTTPFTFGQGTKVEIKR"
assay_metric = "EC50"
readout_unit = "nM"
observed_result = 0.799

[[record]]
binder = "D57 (antibody, V domains shown, Anti-MUC16 mAb; also called MUC16-D57) VH: EVQLLESGGGLVTPGGSLRLSCTASGFTFSDYYLSWVRQAPGKGLEWMGGIIPIFGTANYAQKFQGRVTITADESTSTAYMELSSLRSEDTAVYYCARGGPHYDFWSGYTPGQHGGAFDIWGQGTMVTVSS VL: EIVLTQSPGTLSLSPGERATLSCRASQSVSSSYLAWYQQKPGQAPRLLIYGASSRATGIPDRFSGSGSGTDFTLTISRLEPEDFAVYYCQQRSNWRNTFGQGTRLEIK"
assay_metric = "EC50"
readout_unit = "nM"
observed_result = 0.763


The measurements presented in this section are drawn from patent US20260078196A1.
